Cited source for all entries: patent US10039753B2

target: GST-tagged truncated LRRK2 (Homo sapiens, UniProt Q5S007); construct: GST-tagged truncated LRRK2 from Invitrogen (Cat # PV4874); GST; purchased Invitrogen PV4874; assay: LRRK2 Assay, Format 1 (Lantha Screen), WT; format: biochemical; settings: Format 1, wild-type LRRK2; geometric mean of 2-4 determinations unless footnoted (a: ≥5 determinations; b: single determination; c: determined on trifluoroacetate salt)
Sequence (Q5S007 970-2527 limits assumed): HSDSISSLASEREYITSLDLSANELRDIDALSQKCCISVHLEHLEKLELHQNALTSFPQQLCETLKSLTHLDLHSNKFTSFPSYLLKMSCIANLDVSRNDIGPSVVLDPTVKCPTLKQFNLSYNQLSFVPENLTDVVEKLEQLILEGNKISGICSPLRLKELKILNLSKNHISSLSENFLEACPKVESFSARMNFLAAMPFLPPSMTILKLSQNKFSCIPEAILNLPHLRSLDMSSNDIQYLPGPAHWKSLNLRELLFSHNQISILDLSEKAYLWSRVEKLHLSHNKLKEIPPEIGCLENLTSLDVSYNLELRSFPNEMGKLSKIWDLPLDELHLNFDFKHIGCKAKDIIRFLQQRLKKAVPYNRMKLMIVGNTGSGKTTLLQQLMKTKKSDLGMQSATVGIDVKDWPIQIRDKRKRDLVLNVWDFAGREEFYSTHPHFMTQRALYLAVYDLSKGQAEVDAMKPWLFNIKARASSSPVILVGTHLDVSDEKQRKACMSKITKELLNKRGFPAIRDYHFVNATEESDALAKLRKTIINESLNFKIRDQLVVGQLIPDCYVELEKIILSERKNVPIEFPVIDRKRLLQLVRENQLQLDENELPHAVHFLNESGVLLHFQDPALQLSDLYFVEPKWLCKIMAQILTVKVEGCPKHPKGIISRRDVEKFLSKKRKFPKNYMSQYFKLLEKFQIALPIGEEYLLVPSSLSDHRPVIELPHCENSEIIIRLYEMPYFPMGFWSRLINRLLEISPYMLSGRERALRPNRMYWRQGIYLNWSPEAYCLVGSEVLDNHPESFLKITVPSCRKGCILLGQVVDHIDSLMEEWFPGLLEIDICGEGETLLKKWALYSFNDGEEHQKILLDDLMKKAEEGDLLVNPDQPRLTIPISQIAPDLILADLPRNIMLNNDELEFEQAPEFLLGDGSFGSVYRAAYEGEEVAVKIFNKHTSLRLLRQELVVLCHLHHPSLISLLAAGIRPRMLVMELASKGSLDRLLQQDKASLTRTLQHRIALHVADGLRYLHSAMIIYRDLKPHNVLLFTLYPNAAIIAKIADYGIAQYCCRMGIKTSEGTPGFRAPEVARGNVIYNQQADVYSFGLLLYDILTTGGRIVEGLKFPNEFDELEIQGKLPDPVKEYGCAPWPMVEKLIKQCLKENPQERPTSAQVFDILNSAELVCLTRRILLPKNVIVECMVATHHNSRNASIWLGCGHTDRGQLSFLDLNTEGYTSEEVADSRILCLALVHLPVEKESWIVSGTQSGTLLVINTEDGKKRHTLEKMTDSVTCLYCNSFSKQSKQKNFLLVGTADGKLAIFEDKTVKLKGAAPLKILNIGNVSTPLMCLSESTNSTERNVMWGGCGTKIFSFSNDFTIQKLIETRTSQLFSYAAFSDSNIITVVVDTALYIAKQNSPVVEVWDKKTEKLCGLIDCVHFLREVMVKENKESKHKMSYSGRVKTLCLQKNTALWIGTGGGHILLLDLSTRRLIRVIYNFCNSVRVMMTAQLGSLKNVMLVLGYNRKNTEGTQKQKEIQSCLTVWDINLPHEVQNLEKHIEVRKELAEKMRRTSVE
Structures can show the parent of a compound that is named as a salt.
Readout: pIC50
Scale explanation: pIC50 corresponds to minus log10 of a concentration expressed in moles per litre.

c1ccc2c(c1)ncc1nc(Cn3cnnn3)n(C3CCOCC3)c12 [Example 35] :: 6.82
C[C@@H]1C[C@@H](n2c(Cc3ccon3)nc3cnc4ccc(C#N)cc4c32)CCO1 (racemic) [Example 23] :: 6.70
COCc1cn(Cc2nc3cnc4ccccc4c3n2C2CCOCC2)nn1 [Example 33] :: 6.91

Qu. Which value of pIC50 has been reported for c1ccc2c(c1)ncc1nc(Cc3ccon3)n(C3CCCCC3)c12 [Example 50] in the records?
Ans. 6.90

Qu. Please give the result for CC1(C)CC(n2c(Cc3cscn3)nc3cnc4ccc(F)cc4c32)CCO1 (stereo not shown) [Example 80, trifluoroacetate salt] too.
Ans. 7.28

Qu. Do the same for C[C@@H]1C[C@H](n2c(Cc3cscn3)nc3cnc4ccc(Cl)cc4c32)CCO1 [Example 53] please
Ans. 8.51

====

molecular target: GST-tagged truncated LRRK2 (Homo sapiens); construct: GST-tagged truncated LRRK2 from Invitrogen (Cat # PV4874); GST; purchased Invitrogen PV4874; experiment: LRRK2 Assay, Format 1 (Lantha Screen), WT; format: biochemical; conditions: Format 1, wild-type LRRK2; geometric mean of 2-4 determinations unless footnoted (a: ≥5 determinations; b: single determination; c: determined on trifluoroacetate salt)
Where a name gives a salt, the structure may show the parent alone.
Readout: pIC50
Note on pIC50: it is the negative log10 of concentration, concentration in mol/L.

# annotated cases, reported pIC50 shown
C[C@@H]1C[C@H](n2c(Cc3ccon3)nc3cnc4ccc(Cl)cc4c32)CCO1 :: 8.39
COc1ccc(Cc2nc3cnc4ccc(Cl)cc4c3n2[C@@H]2CCO[C@H](C)C2)nc1 :: 8.17
c1ccc2c(c1)ncc1nc(Cc3cscn3)n(C3CCOCC3)c12 [Example 36, formate salt] :: 7.07

Turning now to a further record.
Qu. What pIC50 value was documented for this molecule, C[C@@H]1C[C@H](n2c(Cc3cscn3)nc3c(N)nc4ccc(Cl)cc4c32)CCO1 [Example 85, trifluoroacetate salt] ?
Ans. 7.91

====

molecular target: mutant G2019S LRRK2 (Homo sapiens, UniProt Q5S007, G2019S); test: LRRK2 Assay, Format 2 (Lantha Screen), G2019S mutant; assay type: biochemical; set-up: purchased Invitrogen PV4881; settings: geometric mean of 2-4 determinations unless otherwise indicated (a: >=5; b: single determination); read-out: LRRK2, Format 2 G2019S IC50
Sequence (Q5S007 970-2527 G2019S limits assumed): as the sequence (Q5S007 970-2527 limits assumed) above, with G1050S counted along it
Structures can show the parent of a compound that is named as a salt.
We begin with a simple list: items and their reported pIC50.
pIC50 here: minus log base 10 of the concentration, concentration in moles per litre.

Qu. I'd like to know its pIC50. The molecule in question is Cc1cc(Cc2nc3cnc4ccc(C#N)cc4c3n2[C@H]2CCCC[C@H]2O)no1 (racemic) [Example 242, formate salt]
Ans. 6.92

Qu. Follow-up item: COc1ccc(Cc2nc3cnc4ccc(C#N)cc4c3n2C2CCOC(C)(C)C2)nc1 (single isomer, unassigned; ent-2)
Ans. 8.16

Qu. Also CCC(F)(F)Cn1c(Cn2cc(C)nn2)nc2cnc3ccc(Cl)cc3c21 , if possible.
Ans. 7.79

Qu. Same again, this time with Cc1cc(Cc2nc3cnc4ccc(C#N)cc4c3n2[C@H]2CC[C@](C)(O)CC2)no1 [Example 247, formate salt]
Ans. 7.23
